ASSAYED TARGET: Calcitonin gene-related peptide type 1 receptor (Homo sapiens, UniProt O60894+Q16602)
Sequence (Q16602 whole entry, one chain of several): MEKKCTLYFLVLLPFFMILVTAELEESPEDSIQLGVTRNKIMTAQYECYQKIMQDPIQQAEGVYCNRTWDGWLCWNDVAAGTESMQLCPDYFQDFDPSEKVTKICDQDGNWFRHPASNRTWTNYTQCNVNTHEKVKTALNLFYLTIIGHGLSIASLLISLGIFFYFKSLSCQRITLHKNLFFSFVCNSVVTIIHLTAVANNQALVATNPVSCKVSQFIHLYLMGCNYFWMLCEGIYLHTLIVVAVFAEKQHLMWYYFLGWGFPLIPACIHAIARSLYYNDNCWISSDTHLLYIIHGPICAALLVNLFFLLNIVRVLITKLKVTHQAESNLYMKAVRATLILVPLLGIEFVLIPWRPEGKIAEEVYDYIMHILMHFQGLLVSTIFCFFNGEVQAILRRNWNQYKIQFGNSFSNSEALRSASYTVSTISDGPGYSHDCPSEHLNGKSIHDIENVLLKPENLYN
PROTOCOL SUMMARY: CGRP1 receptor affinity on human neuroblastoma cells SK-N-MC, which selectively express the human CGRP1 receptor.
ENDPOINT: pIC50
# reply with the number alone; pIC50 is -log10 of concentration in mol/L

Sample H-NVAPTNVGSEAF-OH ; pIC50 observed: 5.00

Sample H-FVPTNVGSKAF-OH ; pIC50 observed: 5.57

Sample H-YAPTNVGSEAF-OH ; pIC50 observed: 5.10

Sample H-FVPTDVGPEAF-OH ; pIC50 observed: 6.33

Sample H-FPPTNVGSEAF-OH ; pIC50 observed: 5.47

Sample H-YVPTNVGSHAF-OH ; pIC50 observed: 5.37

Sample H-YVPTQVGSEAF-OH ; pIC50 observed: 4.02

Sample H-YVPTNVGAEAF-OH ; pIC50 observed: 5.40

* * *

ASSAYED TARGET: Calcitonin gene-related peptide type 1 receptor (Homo sapiens, UniProt O60894+Q16602)
PROTOCOL SUMMARY: CGRP1 receptor affinity on human neuroblastoma cells SK-N-MC, which selectively express the human CGRP1 receptor.
Square brackets hold non-standard residues; d marks the D form. Peptide text beside a SMILES is read from it. Hyp = O=C(O)[C@@H]1C[C@@H](O)CN1
Field: pIC50. Provide a value for each of the compounds that follow.
# reply with the number alone; pIC50 is -log10 of concentration in mol/L

Sample CC(C)[C@H](NC(=O)[C@H](CC(N)=O)NC(=O)[C@@H](NC(=O)[C@@H]1C[C@@H](O)CN1C(=O)[C@@H](NC(=O)[C@@H](N)Cc1ccc(O)cc1)C(C)C)[C@@H](C)O)C(=O)NCC(=O)N[C@@H](CO)C(=O)N[C@@H](CCC(=O)O)C(=O)N[C@@H](C)C(=O)N[C@@H](Cc1ccccc1)C(=O)O (H-YV[Hyp]TNVGSEAF-OH) ; pIC50 observed: 5.05

Sample CC(C)[C@H](NC(=O)[C@H](CC(N)=O)NC(=O)[C@@H](NC(=O)[C@@H]1CCCN1C(=O)[C@@H](NC(=O)[C@@H](N)Cc1ccc(O)cc1)C(C)C)[C@@H](C)O)C(=O)NCC(=O)N[C@@H](CO)C(=O)N[C@@H](CCC(=O)O)C(=O)N[C@@H](C)C(=O)N[C@@H](Cc1ccccc1)C(=O)O ; pIC50 observed: 5.52

Sample CC(C)[C@H](NC(=O)[C@H](CC(=O)O)NC(=O)[C@@H](NC(=O)[C@@H]1CCCN1C(=O)[C@@H](NC(=O)[C@@H](N)Cc1ccccc1)C(C)C)[C@@H](C)O)C(=O)NCC(=O)N1C[C@H](O)C[C@H]1C(=O)N[C@@H](Cc1ccccc1)C(=O)N[C@@H](C)C(=O)N[C@@H](Cc1ccccc1)C(=O)O ; pIC50 observed: 6.21

* * *

ASSAYED TARGET: Calcitonin gene-related peptide type 1 receptor (Homo sapiens, UniProt O60894+Q16602)
PROTOCOL SUMMARY: CGRP1 receptor affinity on human neuroblastoma cells SK-N-MC, which selectively express the human CGRP1 receptor.
ENDPOINT: IC50

Sample H-YVPTFVGSEAF-OH ; IC50 observed: 70 µM

Sample H-FVPTDVGAHAF-OH ; IC50 observed: 0.36 µM

Sample Ac-VPTDVGAFAF-OH ; IC50 observed: 0.3 µM

Sample H-FVPTNVPSEAF-OH ; IC50 observed: > 10 µM

Sample H-YVPTDVGSEAF-OH ; IC50 observed: 5 µM

Sample H-YVFTNVGSEAF-OH ; IC50 observed: 45 µM

* * *

ASSAYED TARGET: Calcitonin gene-related peptide type 1 receptor (Homo sapiens, UniProt O60894+Q16602)
PROTOCOL SUMMARY: CGRP1 receptor affinity on human neuroblastoma cells SK-N-MC, which selectively express the human CGRP1 receptor.
Square brackets hold non-standard residues; d marks the D form. Peptide text beside a SMILES is read from it. Aib = CC(C)(N)C(=O)O
ENDPOINT: pIC50
# reply with the number alone; pIC50 is -log10 of concentration in mol/L

Sample CC(C)[C@H](NC(=O)[C@H](CC(=O)O)NC(=O)[C@@H](NC(=O)[C@@H]1CCCN1C(=O)[C@@H](NC(=O)[C@@H](N)Cc1ccccc1)C(C)C)[C@@H](C)O)C(=O)NCC(=O)N1CCC[C@H]1C(=O)N[C@@H](Cc1ccccc1)C(=O)N[C@@H](C)C(=O)N[C@@H](Cc1ccccc1)C(=O)O ; pIC50 observed: 7.54

Sample CC(C)[C@H](NC(=O)[C@H](CC(=O)O)NC(=O)[C@@H](NC(=O)[C@@H]1CCCN1C(=O)[C@@H](NC(=O)[C@@H](N)Cc1ccccc1)C(C)C)[C@@H](C)O)C(=O)NCC(=O)N1CCCC[C@H]1C(=O)N[C@@H](Cc1ccccc1)C(=O)N[C@@H](C)C(=O)N[C@@H](Cc1ccccc1)C(=O)O ; pIC50 observed: 6.04

Sample CC(C)[C@H](NC(=O)[C@H](CC(=O)O)NC(=O)[C@@H](NC(=O)[C@@H]1CCCN1C(=O)[C@@H](NC(=O)[C@@H](N)Cc1ccccc1)C(C)C)[C@@H](C)O)C(=O)NCC(=O)NC(C)(C)C(=O)N[C@@H](Cc1ccccc1)C(=O)N[C@@H](C)C(=O)N[C@@H](Cc1ccccc1)C(=O)O (H-FVPTDVG[Aib]FAF-OH) ; pIC50 observed: 6.77

Sample CC(C)[C@H](NC(=O)[C@H](CC(N)=O)NC(=O)[C@@H](NC(=O)[C@@H]1CCCN1C(=O)[C@@H](NC(=O)[C@H](N)Cc1ccc(O)cc1)C(C)C)[C@@H](C)O)C(=O)NCC(=O)N[C@@H](CO)C(=O)N[C@@H](CCC(=O)O)C(=O)N[C@@H](C)C(=O)N[C@@H](Cc1ccccc1)C(=O)O ; pIC50 observed: 4.10

* * *

ASSAYED TARGET: Calcitonin gene-related peptide type 1 receptor (Homo sapiens, UniProt O60894+Q16602)
PROTOCOL SUMMARY: CGRP1 receptor affinity on human neuroblastoma cells SK-N-MC, which selectively express the human CGRP1 receptor.
Field: pIC50. Provide a value for each of the substances that follow.
# reply with the number alone; pIC50 is -log10 of concentration in mol/L

Sample H-NVAPTNVGSQGY-OH ; pIC50 observed: 5.00

Sample H-FVPTPVGSEAF-OH ; pIC50 observed: 5.35

Sample H-YPTNVGSEAF-OH ; pIC50 observed: 4.62

Sample H-YVPTNVGSKAF-OH ; pIC50 observed: 5.19

Sample H-YFPTNVGSEAF-OH ; pIC50 observed: 4.85

Sample H-NFVPTNVGSNTY-OH ; pIC50 observed: 5.00

Sample H-NFVPRSKISPQGY-OH ; pIC50 observed: 5.00

Sample H-YVPTNVGSFAF-OH ; pIC50 observed: 5.32

Sample H-YVPTNVGSLAF-OH ; pIC50 observed: 5.07

Sample H-VPTDVGAFAF-OH ; pIC50 observed: 6.70

Sample H-ILSSTNVGSEAF-OH ; pIC50 observed: 5.00

Sample H-FVPTNVGPEAF-OH ; pIC50 observed: 6.55

* * *

ASSAYED TARGET: Calcitonin gene-related peptide type 1 receptor (Homo sapiens, UniProt O60894+Q16602)
PROTOCOL SUMMARY: CGRP1 receptor affinity on human neuroblastoma cells SK-N-MC, which selectively express the human CGRP1 receptor.
Field: pIC50. Provide a value for each of the substances that follow.
# reply with the number alone; pIC50 is -log10 of concentration in mol/L

Sample H-FVPTDVGAFAF-OH ; pIC50 observed: 6.80

Sample Ac-FVPTNVGSEAF-OH ; pIC50 observed: 5.35

Sample Ac-PTDVGAFAF-OH ; pIC50 observed: 6.31

Sample H-PTDVGAFAF-OH ; pIC50 observed: 6.66

Sample H-FVPTDVGSQAF-OH ; pIC50 observed: 5.92

Sample H-NFVPTNVGSQGY-OH ; pIC50 observed: 5.00

Sample H-YVPTNVGSEGF-OH ; pIC50 observed: 4.29

Sample Ac-FVPTDVGAFAF-OH ; pIC50 observed: 6.69

Sample H-YVPTNVGSEAY-OH ; pIC50 observed: 4.49

Sample H-YVPTNVGSQAF-OH ; pIC50 observed: 5.16

Sample H-YTNVGSEAF-OH ; pIC50 observed: 4.74

Sample H-FVPTNVGSEAF-OH ; pIC50 observed: 5.52

Sample H-YVPTLVGSEAF-OH ; pIC50 observed: 5.15

Sample H-NVAPRSKISPEAF-OH ; pIC50 observed: 5.00

Sample H-AVPTNVGSEAF-OH ; pIC50 observed: 4.62

Sample H-NFVPRSKISPEAF-OH ; pIC50 observed: 5.00

Just for reference, ChEMBL document CHEMBL1131198 is where these values come from.
